# STUDY TARGET: PD-L1 His protein / PD-1 Fc protein (Homo sapiens, UniProt Q9NZQ7)
# Sequence (Q9NZQ7 19-238 limits assumed): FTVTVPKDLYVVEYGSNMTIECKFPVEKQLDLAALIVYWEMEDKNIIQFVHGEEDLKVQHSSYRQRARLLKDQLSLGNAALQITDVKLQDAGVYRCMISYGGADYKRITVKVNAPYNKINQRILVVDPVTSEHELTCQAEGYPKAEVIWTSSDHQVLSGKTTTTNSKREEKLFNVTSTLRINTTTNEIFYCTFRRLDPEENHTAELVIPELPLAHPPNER
# ASSAY: HTRF Assay (PD-1/PD-L1 interaction)
# CONDITION DESCRIPTION: PD-L1 His 6 nM, PD-1 Fc 6 nM
MEASURED ATTRIBUTE: pIC50
# pIC50 = -log10(concentration in molar units)

Here is how some compounds turned out for pIC50.
>>> numeric_result("COc1nc(-c2cccc(-c3cccc(-c4cc5c(=O)n(C)c(CN[C@H]6C[C@](C)(O)C6)nn5c4)c3Cl)c2Cl)cc(Cl)c1CNC[C@@H]1CCC(=O)N1 [Example 464]")
8.12
>>> numeric_result("CN1CCNCc2ccc(-c3cccc(-c4cccc(-c5ccn6c(=O)c(CNC[C@@H]7CCC(=O)N7)cnc6c5)c4Cl)c3Cl)cc21 [Example 410]")
6.92
>>> numeric_result("COc1nc(-c2cccc(-c3cccc(-c4ccn5c(=O)c(CN6CC7(CNC(=O)C7)C6)cnc5c4)c3Cl)c2Cl)ccc1CN1CC2(CNC(=O)C2)C1 [Example 70]")
8.15
>>> numeric_result("COc1nc(-c2cccc(-c3cccc(-c4cc5c(=O)n(C)c(CNC6CC7(COC7)C6)nn5c4)c3Cl)c2Cl)ccc1CNC[C@@H]1CCC(=O)N1 [Example 446]")
6.80

So what's the measured pIC50 for this one? COc1nc(-c2cccc(-c3cccc(-c4ccn5c(=O)c(CNC[C@@H]6CCC(=O)N6)cnc5c4)c3Cl)c2Cl)ccc1CNC[C@H](C)O [Example 197]
9.70

Also, COc1nc(-c2cccc(-c3cccc(-c4ccn5c(=O)c(CN[C@H]6C[C@](C)(O)C6)cnc5c4)c3Cl)c2Cl)ccc1CNC[C@@H]1CCC(=O)N1 [Example 143] please.
8.74

====

# STUDY TARGET: PD-L1 His protein / PD-1 Fc protein (Homo sapiens, UniProt Q9NZQ7)
# ASSAY: HTRF Assay (PD-1/PD-L1 interaction)
# CONDITION DESCRIPTION: PD-L1 His 6 nM, PD-1 Fc 6 nM
Below, each entry is listed alongside its reported IC50.

>>> result("COc1nc(-c2cccc(-c3cccc(-c4cc(C)c5nc(CNC[C@@H]6CCC(=O)N6)cc(=O)n5c4)c3Cl)c2Cl)ccc1CNC[C@@H]1CCC(=O)N1")
"56 nM"
>>> result("COc1nc(-c2cccc(-c3cccc(-c4cc5c(cn4)c(CNC[C@@H]4CCC(=O)N4)cn5C)c3Cl)c2Cl)ccc1CNC[C@@H]1CCC(=O)N1")
"50 nM"
>>> result("COC(=O)[C@H]1CCN(Cc2cnc3cc(-c4cccc(-c5cccc(-c6ccc(CNC[C@@H]7CCC(=O)N7)c(OC)n6)c5Cl)c4Cl)ccn3c2=O)C1")
"0.8 nM"

What reported IC50 corresponds to COc1nc(-c2cccc(-c3cccc(-c4cc(=O)n5cc(CNC[C@@H]6CCC(=O)N6)ccc5n4)c3Cl)c2Cl)cnc1CNC[C@@H]1CCC(=O)N1 on PD-L1 His protein / PD-1 Fc protein (Homo sapiens, UniProt Q9NZQ7)?
2.2 nM

Also, COc1nc(-c2cccc(-c3cccc(-c4ccn5cc(CNC[C@@H]6CCC(=O)N6)nc5c4)c3Cl)c2Cl)ccc1CNC[C@@H]1CCC(=O)N1 please.
50 nM

Also, COC[C@@H](NCc1cnc2cc(-c3cccc(-c4cccc(-c5ccc(CNC[C@@H]6CCC(=O)N6)c(OC)n5)c4Cl)c3Cl)ccn2c1=O)C(=O)O please.
0.3 nM

Entry source: patent US20230143612A1
